Biological target: T1, human neuropeptide Y2 receptor (human, UniProt P49146 1-381)
T1 sequence (looked up): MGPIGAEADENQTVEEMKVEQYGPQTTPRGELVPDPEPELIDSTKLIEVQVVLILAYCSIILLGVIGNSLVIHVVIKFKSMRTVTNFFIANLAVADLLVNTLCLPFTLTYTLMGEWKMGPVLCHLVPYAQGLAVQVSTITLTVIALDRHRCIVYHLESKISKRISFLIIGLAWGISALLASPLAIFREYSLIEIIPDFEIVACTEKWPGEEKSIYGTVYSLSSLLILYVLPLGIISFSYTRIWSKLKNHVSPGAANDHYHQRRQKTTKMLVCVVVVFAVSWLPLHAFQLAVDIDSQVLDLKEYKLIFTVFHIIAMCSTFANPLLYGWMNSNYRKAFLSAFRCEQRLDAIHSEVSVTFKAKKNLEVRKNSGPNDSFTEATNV
Assay: cell-based or functional assay
Starred links: 1 amine or outer side, 2 acyl side, 3 side chain; linkers in the order of their positions; H or OH if unused. Non-standard residues stand in square brackets, D forms with d. Groups on a side chain read outwards from the residue. No end group written: not given here. *: point of attachment. C18 diacid = O=C(O)CCCCCCCCCCCCCCCCC(=O)*; γGlu = O=C(O)[C@H](CCC(=O)[*:2])N[*:1]; AEEA = NCCOCCOCC(=O)O; Aib = CC(C)(N)C(=O)O
Hi there, I'd appreciate the recorded EC50 hNPY2R 100% hP (CreLuc) for every entry that follows.
The reply should be a number in nM, with the unit left off.

What does the data say about its EC50 hNPY2R 100% hP (CreLuc)? Entry: Y[Aib]EGTFTSDYSI[Aib]LEKQAQ[Aib]AFVEWLIK([AEEA-AEEA-γGlu-γGlu-γGlu-C18 diacid])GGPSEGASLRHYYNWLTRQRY-NH2 (also: TFA salt) [Compound 299] 31.6

Which EC50 hNPY2R 100% hP (CreLuc) value belongs to Y[Aib]EGTFTSDYSI[Aib]LEKQAQ[Aib]AFVEWLIK([Glu-Glu-Glu-Glu-C18 diacid])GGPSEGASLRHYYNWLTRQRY-NH2 (also: TFA salt) [Compound 291] ? 55.3

Please report the recorded EC50 hNPY2R 100% hP (CreLuc) for YXEGTFTSDYSIXLEKQAQXAFVEWLIKGGPSEGASLRHYYNWLTRQRY (Aib at 2, 13, 20; K28 side chain acylated with C18DA-gGlu-gGlu-gGlu-gGlu-gGlu-AHX; C-terminal amide (NH2)) [Compound 304] . 114
